Biological target: T1, GHRH receptor in human pituitary membrane homogenates (human, UniProt Q02643)
T1 sequence: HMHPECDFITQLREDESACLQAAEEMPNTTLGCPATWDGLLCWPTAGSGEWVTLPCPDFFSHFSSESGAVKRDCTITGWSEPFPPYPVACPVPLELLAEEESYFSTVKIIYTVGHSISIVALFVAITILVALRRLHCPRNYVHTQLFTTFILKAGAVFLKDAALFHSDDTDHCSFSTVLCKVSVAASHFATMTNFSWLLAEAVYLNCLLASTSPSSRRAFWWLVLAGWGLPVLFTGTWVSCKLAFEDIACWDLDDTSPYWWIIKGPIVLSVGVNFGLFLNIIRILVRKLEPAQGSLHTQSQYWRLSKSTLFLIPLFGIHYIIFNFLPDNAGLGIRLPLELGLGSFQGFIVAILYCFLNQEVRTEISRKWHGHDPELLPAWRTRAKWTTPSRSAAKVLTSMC
Assay: ligand competition, 125I-JV-1-42 displaced, human pituitary membranes
pIC50: −log10 of the molar value. Non-standard residues stand in square brackets, D forms with d. No end group written: not given here. *: point of attachment. Desaminotyrosyl = O=C(CCc1ccc(O)cc1)*; NMeY = CN[C@@H](Cc1ccc(O)cc1)C(=O)O; Agmatine = N=C(N)NCCCCN*; Nle = CCCC[C@H](N)C(=O)O; Orn = NCCC[C@H](N)C(=O)O; Abu = CC[C@H](N)C(=O)O; GABA = NCCCC(=O)O
METRIC NAME: pIC50

# BINDER, pIC50
data = [
    ("[NMeY][dA]DAIFTNSYR[Orn]VL[Abu]QLSAR[Orn]LLQDI[Nle]D[Agmatine] [[N-Me-Tyr1, D-Ala2, Orn12, Abu15, Orn21, Nle27, Asp28, Agm29]hGHRH(1-29)]", 8.77),
    ("[NMeY]ADAIFTNSYR[Orn]VL[Abu]QLSAR[Orn]LLQDI[Nle]SR[GABA]-NHMe [[N-Me-Tyr1, Orn12, Abu15, Orn21, Nle27, Gab30]hGHRH(1-30)NH-CH3]", 8.52),
    ("[Desaminotyrosyl]ADAIFTQSYH[Orn]VL[Abu]QLSAH[Orn]LLQDI[Nle]DR-NHMe (not fully specified) [[Dat1, Gln8, His11, Orn12, Abu15, His20, Orn21, Nle27, Asp28]hGHRH(1-29)NH-CH3]", 8.61),
]
